Experiment: soluble on expression in E. coli; label from the status in PepcDB or PDB records

{"seq string": "MGSSHHHHHHGKTIFVIVPTNEEQVAFLEALAKQDELNFDWQNPPTEPGQPVVILIPSDMVEWFLEMLKAKGIPFTVYVEEGGSENLYFQGGGGGGLQLKSHQRLAEKPRRDAFVPRAYTVEELAQFDGKKKPQVFVGVKGIIYNVSLEWYGPEGPYSAFAGCDSSRQLGKVIVGRDEINADWTTLAPEHLKTLHEWEERFHSKYPAVGWITDPNKNFVKRAASLSP", "soluble on expression in E. coli": "not soluble"}
{"seq string": "FLQNAVILGATENGLRLAEYLLEHQDIRSGVIGFIDDRIGRMPKTVANLPLLGNTSDLERLIREEKVTQVLVALPWTAENRMDYIIRELRRLPVNVLLVPDMIAFRHT", "soluble on expression in E. coli": "not soluble"}
{"seq string": "DILLTQSPAILSVSPGERVSFSCRASQSIGTDIHWYQQRTNGSPRLLIKYASESISGIPSRFSGSGSGTDFTLSINSVESEDIANYYCQQSNRWPFTFGSGTKLEIKRADAAPTVSIFPPSSEQLTSGGASVVCFLNNFYPKDINVKWKIDGSERQNGVLNSWTDQDSKDSTYSMSSTLTLTKDEYERHNSYTCEATHKTSTSPIVKSFNRN", "soluble on expression in E. coli": "soluble"}
{"seq string": "MAETIISLLSPTLDIKSPYYFNPDYLHQFNMHTNTAIDKLSEAKDNYAIWKLRFFDLLQFTNKTGFIDGTLPKPDPSSPYYEPWKQCNAIVLHWLSNTVTDTLQNHVLQAETVHKAWEDLRRIFVPCIDFKIYELRQRLATLRQGGDSVAEYFGKLSKAWLELKAYDPVQECKCGGCDCESEKRATEAREKEQRYAFLMGLNKEFDYVKMKVMHKKIPPSVYQAYEMVVYSEAMMKWKMGGRI", "soluble on expression in E. coli": "soluble"}
{"seq string": "MGSDKIHHHHHHMSQILLIHSSVHGYTQKICEYLQRQLIEQDQLVTVASLAEAPDLALFDKVYIGASIRHGKHRPALYQFIEDHRAELDNKPSGFFSVSLVARKPNKNTPQTNSYMQQFLSQSPWQPKLLQVFGGNLDYQGYGAMDRNIIRFIMWLTKGPTDPNTKVEFTDWQKVDEFAQQIIEA", "soluble on expression in E. coli": "not soluble"}
{"seq string": "MLEEELARKIERYFSIEEEALKKIRISPAEGSFLRKIAEDNMQMILSYYSDAKHFYAKGDLINAFAALNYSYGWIDAGVRLGIFDGAGDHRLFTLYE", "soluble on expression in E. coli": "not soluble"}

* * *

Test: soluble on expression in E. coli; label from the status in PepcDB or PDB records

{"seq string": "MWSEYSLEVVDAVARNGSFSAAAQELHRVPSAVSYTVRQLEEWLAVPLFERRHRDVELTAAGAWFLKEGRSVVKKMQITRQQCQQIANGWRGQLAIAVDNIVRPERTRQMIVDFYRHFDDVELLVFQEVFNGVWDALSDGRVELAIGATRAIPVGGRYTFRDMGMLSWSCVVASHHPLALMDGPFSDDTLRNWPSLVREDTSRTLPKRITWLLDNQKRLVVPDWESSATCISAGLCIGMVPTHFAKPWLNEGKWVALELENPFPDSACCLTWQQNDMSPALTWLLEYLGDSETLNKEWLREPEETPATGD", "soluble on expression in E. coli": "not soluble"}
{"seq string": "MKKFFMASLLGSAIALCTTAMAASTDLKALEDAARKEGTVNSVGMPDAWANWKGTWEDLASKYGLKHSDTDMSSAQELAKFEAEKDNASADIGDVGAAFGPIAVTKGVSQPYKPSTWDQVPEWAKDKDGHWALAYTGTIAFIINKDLVKEEERPKTWHDLEKGKYKVAIGDVGTAAQAANGVLAAAIAYKGDESNVAPGLQLFTKLAQQKRLSLANPTIQTLEKGEVEVGVVWDFNGLSYREQIDPKRFEVLIPSDGSVISGYTTVINKYAKHPNAAKLTREYIFSDAGQINLAKGHARPIRAEHLKLPADVQAKLLPNDQYAAAQPIKNAEAWEATSKKLPQMWQEQVIIEME", "soluble on expression in E. coli": "not soluble"}
